These data points were gathered from patent US20200317779A1.

Measured Kd, listed per entry for reference.
# target_system: recombinant cynomolgus monkey CD3ε/δ heterodimer (cynomolgus monkey) (UniProt Q95LI5)
# Sequence (Q95LI5 22-117, stated change not applied, chain 1 of 2): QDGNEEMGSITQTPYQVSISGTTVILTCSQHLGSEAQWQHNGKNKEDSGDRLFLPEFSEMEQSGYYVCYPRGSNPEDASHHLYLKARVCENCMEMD
# Sequence (Q95LI8 22-105, stated change not applied, chain 2 of 2, further chain): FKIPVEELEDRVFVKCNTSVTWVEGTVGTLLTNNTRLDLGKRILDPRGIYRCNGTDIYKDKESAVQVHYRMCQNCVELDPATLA
# experimental_protocol: BLI (Octet), antigen on anti-Penta His sensor, antibody 50 nM
Give a bare numeral; the unit nM is implied.

B15 (antibody, human IgG1, lambda, L234A L235A, V domains shown) VH: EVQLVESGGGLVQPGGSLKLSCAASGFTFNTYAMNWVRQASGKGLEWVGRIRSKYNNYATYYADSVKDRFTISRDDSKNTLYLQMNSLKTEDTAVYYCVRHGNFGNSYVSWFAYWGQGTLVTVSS VL: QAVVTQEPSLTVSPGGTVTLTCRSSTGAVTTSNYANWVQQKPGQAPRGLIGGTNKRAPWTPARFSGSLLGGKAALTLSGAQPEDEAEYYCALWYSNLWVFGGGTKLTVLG    0.627

Return Kd for the following binder: C07 (antibody, human IgG1, lambda, L234A L235A, V domains shown) VH: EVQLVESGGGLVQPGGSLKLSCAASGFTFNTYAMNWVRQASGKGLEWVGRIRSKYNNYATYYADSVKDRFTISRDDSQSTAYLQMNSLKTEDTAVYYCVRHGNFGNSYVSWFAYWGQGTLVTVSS VL: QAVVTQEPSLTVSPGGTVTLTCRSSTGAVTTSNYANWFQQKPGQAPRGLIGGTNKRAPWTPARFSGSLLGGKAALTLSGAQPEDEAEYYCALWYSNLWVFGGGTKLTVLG
27.5

Check the records and state Kd for F15 (antibody, human IgG1, lambda, L234A L235A, V domains shown) VH: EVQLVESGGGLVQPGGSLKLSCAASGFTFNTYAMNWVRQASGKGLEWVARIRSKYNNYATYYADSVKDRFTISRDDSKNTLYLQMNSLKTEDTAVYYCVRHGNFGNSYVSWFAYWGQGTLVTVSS VL: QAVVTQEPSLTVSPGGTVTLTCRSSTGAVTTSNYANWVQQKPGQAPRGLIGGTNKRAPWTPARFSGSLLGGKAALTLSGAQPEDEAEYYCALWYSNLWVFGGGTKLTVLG
1.33
